Reference source for all entries: patent US20170174769A1

target: T1, human KLB and human FGFR1c co-expressed on HEK293/hKLB/hFGFR1c/SRE-luc cells (human, UniProt Q86Z14 1-1044; P11362 22-822); experiment: FACS on stable HEK293 cells
T1 construct: two receptors co-expressed on one cell line; also called KLB/FGFR1c coreceptor; FGF21R
T1 sequence (Q86Z14 whole entry, chain 1 of 2): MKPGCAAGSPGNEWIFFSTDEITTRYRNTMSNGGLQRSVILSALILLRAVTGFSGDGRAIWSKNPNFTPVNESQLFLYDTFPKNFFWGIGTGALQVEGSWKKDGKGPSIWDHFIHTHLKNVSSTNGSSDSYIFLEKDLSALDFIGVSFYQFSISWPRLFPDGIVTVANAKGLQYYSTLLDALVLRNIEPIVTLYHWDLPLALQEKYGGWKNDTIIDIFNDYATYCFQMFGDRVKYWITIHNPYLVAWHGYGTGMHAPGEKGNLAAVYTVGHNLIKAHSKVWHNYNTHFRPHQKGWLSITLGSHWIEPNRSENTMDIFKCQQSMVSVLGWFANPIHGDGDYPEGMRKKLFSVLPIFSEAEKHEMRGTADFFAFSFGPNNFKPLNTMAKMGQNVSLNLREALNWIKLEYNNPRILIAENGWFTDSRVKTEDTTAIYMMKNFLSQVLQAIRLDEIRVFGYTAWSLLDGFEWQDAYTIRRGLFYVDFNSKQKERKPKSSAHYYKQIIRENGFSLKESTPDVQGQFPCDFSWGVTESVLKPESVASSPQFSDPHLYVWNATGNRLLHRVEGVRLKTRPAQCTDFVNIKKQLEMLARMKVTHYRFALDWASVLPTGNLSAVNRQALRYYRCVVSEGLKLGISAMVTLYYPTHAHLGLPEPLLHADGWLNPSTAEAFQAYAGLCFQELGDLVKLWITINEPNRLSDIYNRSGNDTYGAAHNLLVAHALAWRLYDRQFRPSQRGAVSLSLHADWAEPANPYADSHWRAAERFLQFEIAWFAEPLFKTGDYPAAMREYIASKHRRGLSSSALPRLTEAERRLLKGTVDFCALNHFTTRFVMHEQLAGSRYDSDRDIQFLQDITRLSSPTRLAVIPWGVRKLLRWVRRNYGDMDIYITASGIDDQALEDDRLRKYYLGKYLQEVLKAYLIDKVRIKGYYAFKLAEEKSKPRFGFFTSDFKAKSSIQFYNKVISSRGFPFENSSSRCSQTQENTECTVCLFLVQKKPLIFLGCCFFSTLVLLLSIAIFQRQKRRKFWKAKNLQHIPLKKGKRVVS
T1 sequence (P11362 other isoform, or with tags, fused parts or gaps limits assumed, chain 2 of 2): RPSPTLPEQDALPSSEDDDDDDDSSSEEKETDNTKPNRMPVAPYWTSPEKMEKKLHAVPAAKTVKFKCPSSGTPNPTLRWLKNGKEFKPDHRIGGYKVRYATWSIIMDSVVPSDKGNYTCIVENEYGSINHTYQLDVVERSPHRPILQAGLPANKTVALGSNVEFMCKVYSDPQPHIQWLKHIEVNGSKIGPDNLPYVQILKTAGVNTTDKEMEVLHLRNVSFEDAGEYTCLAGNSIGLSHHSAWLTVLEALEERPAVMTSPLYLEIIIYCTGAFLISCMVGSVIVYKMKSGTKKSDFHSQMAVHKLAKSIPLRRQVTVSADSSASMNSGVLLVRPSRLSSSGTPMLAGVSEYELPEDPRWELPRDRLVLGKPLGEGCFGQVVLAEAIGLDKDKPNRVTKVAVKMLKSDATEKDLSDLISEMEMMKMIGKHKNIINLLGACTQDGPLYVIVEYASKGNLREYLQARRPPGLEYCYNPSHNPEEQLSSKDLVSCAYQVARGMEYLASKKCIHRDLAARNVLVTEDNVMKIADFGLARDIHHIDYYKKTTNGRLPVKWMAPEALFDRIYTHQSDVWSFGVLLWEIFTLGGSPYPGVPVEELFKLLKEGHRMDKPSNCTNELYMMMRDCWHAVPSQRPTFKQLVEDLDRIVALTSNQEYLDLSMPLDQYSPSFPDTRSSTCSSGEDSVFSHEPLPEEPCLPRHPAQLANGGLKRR
A collection of binders and their measured binding ratio to unstained cells
Supply the numeric figure in fold, leaving out any unit text.

Recorded results for 2 binders are shown here.
# Binder, binding ratio to unstained cells (fold)
records = [
    ("H4H8878P (antibody, V domains shown, human IgG4 Fc (H4H prefix)) VH: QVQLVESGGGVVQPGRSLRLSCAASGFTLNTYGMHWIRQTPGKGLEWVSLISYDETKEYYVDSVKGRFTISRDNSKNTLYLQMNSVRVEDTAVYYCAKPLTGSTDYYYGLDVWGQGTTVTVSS VL: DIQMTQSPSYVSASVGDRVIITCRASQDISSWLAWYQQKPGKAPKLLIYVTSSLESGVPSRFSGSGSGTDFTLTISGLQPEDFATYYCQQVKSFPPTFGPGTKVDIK", 35),
    ("H4H8881P (antibody, V domains shown, human IgG4 Fc (H4H prefix)) VH: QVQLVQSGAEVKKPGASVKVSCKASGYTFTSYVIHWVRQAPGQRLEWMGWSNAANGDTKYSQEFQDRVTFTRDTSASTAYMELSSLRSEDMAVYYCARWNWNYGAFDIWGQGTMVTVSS VL: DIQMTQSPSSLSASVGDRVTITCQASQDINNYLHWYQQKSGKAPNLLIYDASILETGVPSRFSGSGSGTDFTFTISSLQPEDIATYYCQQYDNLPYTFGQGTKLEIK", 35),
]

Next up:
Kindly note the recorded binding ratio to unstained cells for H4H8859P (antibody, V domains shown, human IgG4 Fc (H4H prefix)) VH: EVQLVESGGSVVRPGGSLRLSCAASGFTFDVYGMSWVRQAPGKGLEWVSGINWIGGSTGYADSVKGRFTISRDNAKNSLYLQMNSLRAEDTALYYCTREEDYWGQGTLVTVSS VL: DVVMTQSPLSLAVTLGQPASISCRSSQSLVYSDGNTYLNWFQQRPGQSPRRLFYKVSNRDSGVPDRFSGSGSGTDFTLKISRVEAEDVGIYYCMQGIKWPLTFGGGTKVEIK , which is 4
